condition notes: in ethanol, 318.15 K
recorded endpoint: solubility (mole fraction)

>>> print(df.to_string())
            sample_smiles  meas_value
0  O=C(O)/C=C/c1ccc(O)cc1      0.0675
1        COc1cc(C=O)ccc1O      0.0938

----------
condition notes: in ethyl acetate, 308.15 K
recorded endpoint: solubility (mole fraction)

            sample_smiles  meas_value
0  O=C(O)/C=C/c1ccc(O)cc1      0.0164
1        COc1cc(C=O)ccc1O       0.133

----------
condition notes: in ethyl acetate, 293.15 K
recorded endpoint: solubility (mole fraction)

>>> print(df.to_string())
            sample_smiles  meas_value
0  O=C(O)/C=C/c1ccc(O)cc1      0.0114
1        COc1cc(C=O)ccc1O       0.118
